Ref: ChEMBL document CHEMBL5523764

# PROTOCOL DETAILS: Acute toxicity in ip female ICR mouse assessed as lethal dose measured after 2 days
# Type: organism-based
# CONDITION PARAMETERS: in vivo, time 2 day
TEST READOUT: LD50 at 48 h (mg/kg)
Give the value, in units of mg/kg, as a plain number.

Data request: Which LD50 at 48 h reading was recorded for the molecule `CC[C@H]1O[C@@]2(C)[C@H](OC(C)=O)[C@@]1(C)O[C@@H](/C=C/C=C/C=C/c1oc(=O)cc(OC)c1C)[C@@H]2OC(=O)CCC(=O)OC/C=C/COc1no[n+]([O-])c1S(=O)(=O)c1ccccc1` ?
Data returned: 103

###

# PROTOCOL DETAILS: Toxicity in ip dosed mouse assessed as lethal dose
# Assay type: organism-based
# CONDITION PARAMETERS: in vivo
TEST READOUT: LD50 (mg/kg)
Dear colleague, please return just the value in mg/kg, with no unit written.

Data request: Would you kindly share the measured LD50 for `CC[C@H]1O[C@@]2(C)[C@H](OC(C)=O)[C@@]1(C)O[C@@H](/C=C/C=C/C=C/c1oc(=O)cc(OC)c1C)[C@@H]2O` ?
Data returned: 12

###

# Tested on: 4T1
# PROTOCOL DETAILS: Antiproliferative activity against mouse 4T1 cells assessed as reduction in cell viability incubated for 72 hrs by MTT assay
# Assay type: functional, cell-based
# CONDITION PARAMETERS: 4T1, 72 h
In this section, each of the compounds is paired with its reported IC50.
Please reply with the bare figure in µM and do not write the unit itself.

| TEST SMILES | IC50 / µM |
| --- | --- |
| CC[C@H]1O[C@@]2(C)[C@H](OC(C)=O)[C@@]1(C)O[C@@H](/C=C/C=C/C=C/c1oc(=O)cc(OC)c1C)[C@@H]2OC(=O)CCCC(=O)OCc1c(-c2ccc(Cl)cc2)no[n+]1[O-] | 7.86 |

Data request: GET /values?readout=IC50&item= `O=S(=O)(c1ccccc1)c1no[n+]([O-])c1S(=O)(=O)c1ccccc1`
Data returned: 2.14

###

# PROTOCOL DETAILS: Selectivity index, ratio of IC50 for cytotoxicity against human MCF-10A cells to IC50 for antiproliferative activity against human MDA-MB-231 cells
# Type: toxicity, cell-based
# CONDITION PARAMETERS: MCF-10A cells versus MDA-MB-231 cells, read-out: Ratio IC50
TEST READOUT: selectivity ratio

Solved entries:
| TEST SMILES | RESULT |
| --- | --- |
| CC[C@H]1O[C@@]2(C)[C@H](OC(C)=O)[C@@]1(C)O[C@@H](/C=C/C=C/C=C/c1oc(=O)cc(OC)c1C)[C@H]2OC(=O)CCC(=O)OCCCCCOc1no[n+]([O-])c1S(=O)(=O)c1ccccc1 | > 83 |
| CC[C@H]1O[C@@]2(C)[C@H](OC(C)=O)[C@@]1(C)O[C@@H](/C=C/C=C/C=C/c1oc(=O)cc(OC)c1C)[C@@H]2OC(=O)CCC(=O)OCC#CCOc1no[n+]([O-])c1S(=O)(=O)c1ccccc1 | > 40 |
| CC[C@H]1O[C@@]2(C)[C@H](OC(C)=O)[C@@]1(C)O[C@@H](/C=C/C=C/C=C/c1oc(=O)cc(OC)c1C)[C@H]2OC(=O)CCC(=O)OCCCCCCOc1no[n+]([O-])c1S(=O)(=O)c1ccccc1 | > 111 |

Data request: Using the record for `CC[C@H]1O[C@@]2(C)[C@H](OC(C)=O)[C@@]1(C)O[C@@H](/C=C/C=C/C=C/c1oc(=O)cc(OC)c1C)[C@@H]2OC(=O)CCC(=O)ONC(=O)COCCOc1no[n+]([O-])c1S(=O)(=O)c1ccccc1` , report its selectivity ratio.
Data returned: > 33

Data request: Endpoint output: selectivity ratio of `CC[C@H]1O[C@@]2(C)[C@H](OC(C)=O)[C@@]1(C)O[C@@H](/C=C/C=C/C=C/c1oc(=O)cc(OC)c1C)[C@@H]2OC(=O)CCCC(=O)OCc1c(-c2ccc(OC)cc2)no[n+]1[O-]` . Value?
Data returned: > 13

Data request: Look up selectivity ratio for this compound: `CC[C@H]1O[C@@]2(C)[C@H](OC(C)=O)[C@@]1(C)O[C@@H](/C=C/C=C/C=C/c1oc(=O)cc(OC)c1C)[C@@H]2OC(=O)CCC(=O)ONC(=O)CCCOc1no[n+]([O-])c1S(=O)(=O)c1ccccc1`
Data returned: > 72

Data request: Name the reported selectivity ratio value associated with the compound `CC[C@H]1O[C@@]2(C)[C@H](OC(C)=O)[C@@]1(C)O[C@@H](/C=C/C=C/C=C/c1oc(=O)cc(OC)c1C)[C@@H]2OC(=O)CCC(=O)OC/C=C/COc1no[n+]([O-])c1S(=O)(=O)c1ccccc1`
Data returned: > 79

Data request: Which selectivity ratio reading was recorded for the compound `CC[C@H]1O[C@@]2(C)[C@H](OC(C)=O)[C@@]1(C)O[C@@H](/C=C/C=C/C=C/c1oc(=O)cc(OC)c1C)[C@@H]2OC(=O)CCC(=O)ONC(=O)CCCCCOc1no[n+]([O-])c1S(=O)(=O)c1ccccc1` ?
Data returned: > 48

Data request: Entry `CC[C@H]1O[C@@]2(C)[C@H](OC(C)=O)[C@@]1(C)O[C@@H](/C=C/C=C/C=C/c1oc(=O)cc(OC)c1C)[C@@H]2OC(=O)CCCCCOc1no[n+]([O-])c1S(=O)(=O)c1ccccc1` has what selectivity ratio?
Data returned: > 50

Data request: Look up selectivity ratio: `CC[C@H]1O[C@@]2(C)[C@H](OC(C)=O)[C@@]1(C)O[C@@H](/C=C/C=C/C=C/c1oc(=O)cc(OC)c1C)[C@@H]2OC(=O)COCCOCCOc1no[n+]([O-])c1S(=O)(=O)c1ccccc1`
Data returned: > 100

###

selectivity ratio by entry:
# PROTOCOL DETAILS: Selectivity index, ratio of IC50 for cytotoxicity against human MCF-10A cells to IC50 for antiproliferative activity against human MDA-MB-231 cells
# Format: toxicity, cell-based
# CONDITION PARAMETERS: MCF-10A cells versus MDA-MB-231 cells, read-out: Ratio IC50

| TEST SMILES | TEST READOUT | RESULT |
| --- | --- | --- |
| CC[C@H]1O[C@@]2(C)[C@H](OC(C)=O)[C@@]1(C)O[C@@H](/C=C/C=C/C=C/c1oc(=O)cc(OC)c1C)[C@@H]2OC(=O)CCC(=O)OCCOCCOc1no[n+]([O-])c1S(=O)(=O)c1ccccc1 | selectivity ratio | > 28 |
| O=S(=O)(c1ccccc1)c1no[n+]([O-])c1S(=O)(=O)c1ccccc1 | selectivity ratio | 3.1 |

Data request: Recorded selectivity ratio of `CC[C@H]1O[C@@]2(C)[C@H](OC(C)=O)[C@@]1(C)O[C@@H](/C=C/C=C/C=C/c1oc(=O)cc(OC)c1C)[C@@H]2O` , please.
Data returned: > 23

###

selectivity ratio listing for selected molecules.
# PROTOCOL DETAILS: Selectivity index, ratio of IC50 for cytotoxicity against human MCF-10A cells to IC50 for antiproliferative activity against human MDA-MB-231 cells
# Assay type: toxicity, cell-based
# CONDITION PARAMETERS: MCF-10A cells versus MDA-MB-231 cells, read-out: Ratio IC50

| TEST SMILES | RESULT |
| --- | --- |
| CC[C@H]1O[C@@]2(C)[C@H](OC(C)=O)[C@@]1(C)O[C@@H](/C=C/C=C/C=C/c1oc(=O)cc(OC)c1C)[C@@H]2OC(=O)CCCC(=O)OCc1c(-c2ccc(Br)cc2)no[n+]1[O-] | > 10 |

Data request: Reported selectivity ratio for `CC[C@H]1O[C@@]2(C)[C@H](OC(C)=O)[C@@]1(C)O[C@@H](/C=C/C=C/C=C/c1oc(=O)cc(OC)c1C)[C@@H]2OC(=O)CCC(=O)ONC(=O)CCCCOc1no[n+]([O-])c1S(=O)(=O)c1ccccc1` : what is it?
Data returned: > 40

Data request: Bench note: what selectivity ratio did `CC[C@H]1O[C@@]2(C)[C@H](OC(C)=O)[C@@]1(C)O[C@@H](/C=C/C=C/C=C/c1oc(=O)cc(OC)c1C)[C@@H]2OC(=O)CCCCCCCOc1no[n+]([O-])c1S(=O)(=O)c1ccccc1` show?
Data returned: > 71

Data request: Can you share its selectivity ratio? I mean this molecule: `CC[C@H]1O[C@@]2(C)[C@H](OC(C)=O)[C@@]1(C)O[C@@H](/C=C/C=C/C=C/c1oc(=O)cc(OC)c1C)[C@@H]2OC(=O)CCCC(=O)OCc1c(-c2ccc(Cl)cc2)no[n+]1[O-]`
Data returned: > 10

Data request: // returns reported selectivity ratio for input `CC[C@H]1O[C@@]2(C)[C@H](OC(C)=O)[C@@]1(C)O[C@@H](/C=C/C=C/C=C/c1oc(=O)cc(OC)c1C)[C@H]2OC(=O)CCC(=O)OCCc1ccc(Oc2no[n+]([O-])c2S(=O)(=O)c2ccccc2)cc1`
Data returned: > 15
